target: T1, cynomolgus CD38 ECD (cynomolgus, UniProt Q5VAN0 44-301, biotinylated on the AviTag during preparation); assay: SPR (Biacore 8K), antibody captured, antigen injected;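 note: antibodies held on a CM5 chip through anti-human IgG Fc, antigen in 3-fold serial dilutions, 1 min association then 10 min dissociation at 25 °C, 1:1 Langmuir global fit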
T1 construct: also called Cyno-CD38; Avi-Cyno CD38 ECD
Listing of recorded koff by entry.
Lab book: enter the figure in s⁻¹, no units written.

Below: 2 binders and their reported koff.
binder="25E4 (antibody, human IgG1, kappa, V domains shown, Rabbit-human chimeric anti-CD38: rabbit VH and VL on human IgG1 and kappa constant regions) VH: QSLEESGGRLVTPGTPLTLTCTVSGIDLSIYTMAWVRQAPGKGLEYIGIISGYGTTYYATWAKGRFIVSKTSTTVDLKITSPTTEDTATYFCVRTTVQSTDLWGPGTLVTVSS VL: DIVMTQTPASVEAAVGGTVTINCQASQNIYSNLAWYQQKPGQRPKLLIYKASTLASGVSSRFKGSGSGTEFTLTISDLASADAATYYCQSYYGATSSSFGYGFGGGTEVVVKR" numeric_value=0.000175
binder="21G2 (antibody, human IgG1, kappa, V domains shown, Rabbit-human chimeric anti-CD38: rabbit VH and VL on human IgG1 and kappa constant regions) VH: QSVEESGGRLVTPGTPLTLTCTVSGFSLSNYGVSWVRQAPGKGLEWIGYILTSGGTYYANWAQGRFTISKTSTTVDLKITSPTTEDTATYFCGRPKDSDSSAFVSLWGPGTLVTVSS VL: DVVMTQTPASVSEPVGGTVTINCQASESIYSNLAWYQQKPGQPPKLLIYKASTLASGVSSRFKGSGSGTEFTLTISDLESADAATYYCQANHMIVIYGNGFGGGTEVVVKR" numeric_value=0.000432

Please turn your attention to the following entry.
Query: # input binder: 21H9 (antibody, human IgG1, kappa, V domains shown, Rabbit-human chimeric anti-CD38: rabbit VH and VL on human IgG1 and kappa constant regions) VH: QSLEESGGDLVKPGASLTLTCTASGFSATTYYYYMCWVRQAPGKGLEWIACTYTGDGATYYATWAKGRFTISKTSSTTVTLQMTSLTAADTATYFCARSADNSIYYGYFNLWGPGTLVTVSS VL: AFELTQTPFSVSEPVGGTVTINCQASENIYSSLAWYQQKPGQPPKLLIYRASTLASGVPSRFSGSGSGTEFTLTISGVQSDDAATYYCQTYYGSTSTGFTFGGGTEVVVKR ; wanted: its koff
Result: 0.00014
